test system: SK-MEL-5 melanoma
Pick one and only one: YES = active, NO = inactive

Task: Which outcome was entered for the molecule CCc1ccc(C2=C(O)C(=O)C(c3ccc(CC)cc3)=C(O)C2=O)cc1 in this test?
Result: NO

Task: Please share the test call associated with N#CC1C(N)=NNC1c1ccc(-c2ccc(-c3nc4ccccc4o3)cc2)o1 (centres undefined) .
Result: NO

Task: Field: outcome | Entry: Cc1ccc(-c2cc3nc(-c4ccccc4)nc(C(Cl)Cl)n3n2)cc1
Result: NO

Task: Test call for this molecule, please: Cc1cc(O)cc(C)c1/C=C/c1cncc(C(=O)N(C)C)c1
Result: NO

Task: Name the outcome recorded for COc1cccc2c(=O)c3c(sc12)c(NCCCN)nc1ccccc13 in the assay.
Result: NO

Task: What call does the record list for COC(=O)c1ccc2c(c1)c1c(C)c3cnccc3c(C)c1n2C ?
Result: YES

Task: Dear colleague, could you share the recorded outcome for O=C(Nc1ccc(Br)cc1)c1cc(Br)cc(Br)c1O when you have a moment?
Result: NO

Task: # fetch the recorded call for CC/C=C\C[C@H](O)C/C=C1/C(=O)C=C[C@@H]1C/C=C\CCCC(N)=O here
Result: NO

Task: For this molecule, state the assay outcome: Cn1nnnc1[N-]Cc1ccccc1.[Au+].c1ccc([PH+](c2ccccc2)c2ccccc2)cc1
Result: NO

Task: What call does the record list for O=C1C=C(c2cc(Br)c(O)c(Br)c2)/C(=C/c2cc(Br)c(O)c(Br)c2)O1 ?
Result: NO

Task: Hey, what did the test say about C=C(CNCCO)[C@@H]1CC[C@]2(CO)CC[C@]3(C)[C@H](CC[C@@H]4[C@@]5(C)CCC(NCCc6ccc(O)cc6)C(C)(C)[C@@H]5CC[C@]43C)[C@@H]12 (some centres undefined) ?
Result: NO

Task: Which outcome did this test record for the molecule CCC(=O)N1C/C(=C/c2ccc(OC)cc2)C(=O)/C(=C/c2ccc(OC)cc2)C1 ?
Result: NO

Task: Hello, I am checking results. What call was entered for O=C(N/N=C/c1ccc(F)cc1)c1[nH]c2ccc(I)cc2c1-c1ccccc1 ?
Result: YES

Task: Dear colleague, could you share the recorded outcome for OCC1OC(N2C=C(c3nc4ccccc4s3)C3C=CC=CC32)C(O)C1O (centres undefined) when you have a moment?
Result: NO

---

Recorded measurements of TGI, one per entry
tested on: MDA-MB-435; experiment: NCI tumour cell line growth inhibition, 48 h
The response must be a number in µM with no trailing unit.

# annotated cases, reported TGI shown
molecule: c1cc(-c2sc(-c3ccncc3)c(-c3ccncc3)c2-c2ccncc2)ccn1
TGI (µM): 33.4
//
molecule: CCCCc1cc(O)ccc1O
TGI (µM): 62.1
//
molecule: COC(=O)C(Cc1ccccc1)NC(=O)CNC(=O)CSc1nnc(COc2ccc(Cl)cc2)n1-c1ccccc1 (configuration not stated)
TGI (µM): 35
//
molecule: CC[C@H]1C=CCC[C@@]2(C[C@@H]3CC[C@@H]4[C@H](C(=O)OCCCCCCCCCCCCCCCC(=O)N(CCCN)C[C@@H](O)CCN)[C@]5(CCC[C@@H](C)O5)NC(=[N+]34)N2)O1
TGI (µM): 0.469

Task: Observed TGI on MDA-MB-435 for CC/C=C\C[C@H](O)C/C=C1/C(=O)C=C[C@@H]1C/C=C\CCCC(N)=O , please.
Result: 5.24

---

system: OVCAR-5 ovarian; assay: NCI tumour cell line growth inhibition, 48 h
// reported TGI for each item listed

Recorded TGI, per entry:
compound: COc1cccc2c(=O)c3c(sc12)c(NCCCN)nc1ccccc13
TGI: 3.01 µM
//
compound: O=C(/C=C/c1ccc([N+](=O)[O-])o1)NNC(=O)c1cc2ccccc2cc1O
TGI: > 100 µM
//
compound: NC(=O)c1ccccc1NC(=O)C(=O)C(c1cnc2ccc([N+](=O)[O-])cc2n1)[N+](=O)[O-] (centres undefined)
TGI: > 100 µM

Task: Name the recorded TGI for OCC1OC(N2C=C(c3nc4ccccc4s3)C3C=CC=CC32)C(O)C1O (centres undefined) .
Result: 32.7 µM

---

test system: HCT-15 colon
In this exercise, the only acceptable responses are active, inactive

A selection of reference data follows.
compound: Cc1ccc(-c2cc3nc(-c4ccccc4)nc(C(Cl)Cl)n3n2)cc1
assignedLabel: inactive
--
compound: CCN(CC)C(=S)SSC1CCCCC1
assignedLabel: inactive
--
compound: CCCCc1cc(O)ccc1O
assignedLabel: inactive
--
compound: CCCCS(=N)(=O)CC[C@H](N)C(=O)O (stereo partly drawn)
assignedLabel: inactive
--
compound: O=C(Nc1ccc(Br)cc1)c1cc(Br)cc(Br)c1O
assignedLabel: inactive
--
compound: CCOC(=O)/C(C1=CC(=O)C(=O)c2ccccc21)=C(/C)NCc1ccccc1
assignedLabel: inactive

Task: What classification did O=C(/C=C/c1ccc([N+](=O)[O-])o1)NNC(=O)c1cc2ccccc2cc1O end up with in this test?
Result: inactive

Task: Test call, this compound: COc1ccc(-c2cn3ccnc3c(-c3ccc4ncn(C5CCCCC5)c4c3)n2)cc1
Result: inactive

Task: Any idea what this test logged for O=C(N/N=C/c1ccc(F)cc1)c1[nH]c2ccc(I)cc2c1-c1ccccc1 ?
Result: active

Task: Outcome? Cn1nnnc1[N-]Cc1ccccc1.[Au+].c1ccc([PH+](c2ccccc2)c2ccccc2)cc1
Result: inactive

Task: Dear colleague, could you share the recorded outcome for NS(=O)(=O)c1ccc(/C=C/c2cccc(O)c2)cc1 when you have a moment?
Result: inactive

---

system: NCI-H460 lung
Write down one outcome, taken from 1 = active, -1 = inactive

Recorded results for 2 compounds are shown here.
compound: Nc1ccc2c(c1)[O][Sn]([c]1ccccc1)([c]1ccccc1)[O]C2=O
assignedLabel: -1

compound: OC1CCC(Oc2cccc3cnc(Nc4ccc5nc[nH]c5c4)nc23)CC1 (centres undefined)
assignedLabel: 1

Task: Which outcome was entered for the compound CC1=CC[C@@H]2C(C)(C)[C@@H](O)CC[C@@]2(C)[C@@H]1COc1ccc2ccc(=O)oc2c1 in this test?
Result: -1

Task: I would be grateful if you could indicate the recorded call for C=C1C(O)C2C(=C(CC(C)C)C13CC3)C(=O)C(C)(C)C2OC (centres undefined) .
Result: -1

---

system: DU-145 prostate; test: NCI tumour cell line growth inhibition, 48 h
valueKind: TGI

Worked cases, answers included:
molecule: O=C(O)C(Cc1cccs1)C(=O)O
reportedValue: > 100 µM
//
molecule: O=[N+]([O-])/C=C\c1ccc2c(c1)OCO2
reportedValue: 10.2 µM
//
molecule: CC1=C(C#N)S(=O)(=O)c2c(oc(C)c2C)N1
reportedValue: > 100 µM

Task: What TGI value was documented for this molecule, CC(C)n1c(=O)c2nn3c(=O)n(C(C)C)c(=O)c3nn2c1=O ?
Result: > 100 µM

Task: Dear colleague, I am looking for the recorded TGI of the following molecule: C=C1CCCCCCCCCCC1S(=O)c1ccccc1 (stereo unspecified)
Result: > 100 µM

Task: Would you mind telling me what TGI value was observed for COc1cccc(C2c3cc4c(cc3OC(N3CCOCC3)C2C)OCO4)c1O (stereo unspecified) ?
Result: 26.6 µM

---

Item-by-item account of GI50
system: UO-31 renal; experiment: NCI tumour cell line growth inhibition, 48 h

Task: I have this compound here, O=c1c(OC/C(=N/O)c2ccccc2)c(-c2ccccc2)oc2ccccc12 , and I need its recorded GI50.
Result: 19.2 µM

Task: Any idea what GI50 was measured for CC/C=C\C[C@H](O)C/C=C1/C(=O)C=C[C@@H]1C/C=C\CCCC(N)=O ?
Result: 1.63 µM

Task: For the compound CC1=CC[C@@H]2C(C)(C)[C@@H](O)CC[C@@]2(C)[C@@H]1COc1ccc2ccc(=O)oc2c1 , what GI50 is on record?
Result: 2.99 µM

---

Each entry below carries its reported TGI.
test system: SNB-75 CNS; assay: NCI tumour cell line growth inhibition, 48 h

Below: 2 compounds and their reported TGI.
compound: CCCN(CCCCC(NC(C)=O)C(=O)NCc1ccccc1)C(=O)NC (configuration not stated)
TGI: > 100 µM
//
compound: O=C(O)c1nnsc1COCc1ccccc1
TGI: > 100 µM

Task: Entry under review: CCOC(=O)c1sc2c(C(=O)OCC)n3ccccc3c2c1N . Reported TGI?
Result: 99.1 µM

Task: Fill blank: measured TGI of the compound CC1(C)N=C(N)N=C(N)N1c1cccc(CSc2ccccc2)c1 is ____.
Result: 43.8 µM

Task: For the compound shown here, CCCCCCCCOCC1S(=O)(=O)OCCOS1(=O)=O , give the reported TGI.
Result: > 100 µM

Task: What value of measured TGI is listed for CC1(C)C2CCC1C(=O)C(C=O)C2 (configuration not stated) ?
Result: > 100 µM

Task: Item CC(=O)Nc1ccc(Nc2nc(=O)[nH]c(=O)[nH]2)cc1 has what recorded TGI?
Result: > 100 µM

Task: Fill in: TGI of N#CC(c1ccccc1)c1cccc2ccccc12 (configuration not stated) is ___
Result: > 100 µM

Task: Dear colleague, I am looking for the recorded TGI of the following compound: O=C(c1ccco1)N(C(=S)N1CCN(c2ccccc2)CC1)c1ccccc1
Result: > 100 µM

Task: What measured TGI goes with C=C(Br)CN(C#N)CC(=C)Br ?
Result: > 100 µM

Task: Value lookup for TGI; key = Cc1nc2ccccc2n1CCc1nc2ccccc2s1
Result: > 100 µM

Task: TGI lookup needed for COc1ccc(/C=[N+](\[O-])[C@H](COCc2ccccc2)c2ccccc2)cc1 , thanks.
Result: > 100 µM

Task: Consider the compound shown here: Cn1cc(NC(=O)c2cc(NC(=O)CCCCCC(=O)Nc3cc(C(=O)Nc4cc(C(=O)NCCC(=N)N)n(C)c4)n(C)c3)cn2C)cc1C(=O)NCCC(=N)N What is its recorded TGI?
Result: > 100 µM

Values from PubChem BioAssay (NCI)
